experiment summary: qHTS assay to identify small molecule agonists of the NFkB signaling pathway (AID 1159509)
condition: NFkB-bla ME-180 cells, beta-lactamase FRET ratio, 5 h; series mostly up to 61 µM
Inconclusive results are not listed. Calls of active or inactive are those of the source. The call rests on the fitted dose curve; in most records, active means well fitted curve in the direction sought with a large enough effect in the signal ratio in the repeat runs (not every such curve was filed as active); inconclusive means weak or mixed curves, or a change in a side signal; inactive means no such curve, though single readings can be large or run the other way; the % refers to the signal ratio.

[
  {
    "compound": "CCN(CC)C(C)C(=O)c1ccccc1 (stereo not drawn)",
    "outcome": "inactive"
  },
  {
    "compound": "COc1ncc(F)c2nc(S(=O)(=O)Nc3c(F)cccc3F)nn12",
    "outcome": "inactive"
  },
  {
    "compound": "COc1cc(OC)nc(Sc2cccc(Cl)c2C(=O)O)n1",
    "outcome": "inactive"
  },
  {
    "compound": "O=[N+]([O-])c1ccc(CBr)cc1",
    "outcome": "inactive"
  },
  {
    "compound": "CCCCP(CCCC)CCCC",
    "outcome": "inactive"
  },
  {
    "compound": "CCCCCCBr",
    "outcome": "inactive"
  },
  {
    "compound": "CCCCc1c(C)nc(NCC)[nH]c1=O",
    "outcome": "inactive"
  },
  {
    "compound": "CCS(=O)(=O)C(C)(C)S(=O)(=O)CC",
    "outcome": "inactive"
  },
  {
    "compound": "O=c1oc2ccccc2c(O)c1C1CCCc2ccccc21 (stereo not drawn)",
    "outcome": "inactive"
  },
  {
    "compound": "COc1cccc2c1cc([N+](=O)[O-])c1c(C(=O)O)cc3c(c12)OCO3",
    "outcome": "inactive"
  },
  {
    "compound": "COc1cccc(C(=O)NN(C(=O)c2cc(C)cc(C)c2)C(C)(C)C)c1C",
    "outcome": "inactive"
  },
  {
    "compound": "ClCC(Cl)(Cl)Cl",
    "outcome": "inactive"
  },
  {
    "compound": "CCOP(=S)(OCC)SCSP(=S)(OCC)OCC",
    "outcome": "inactive"
  }
]

----------
study system: Estrogen receptor (Homo sapiens) (UniProt P03372)
Sequence (P03372 whole entry, looked up): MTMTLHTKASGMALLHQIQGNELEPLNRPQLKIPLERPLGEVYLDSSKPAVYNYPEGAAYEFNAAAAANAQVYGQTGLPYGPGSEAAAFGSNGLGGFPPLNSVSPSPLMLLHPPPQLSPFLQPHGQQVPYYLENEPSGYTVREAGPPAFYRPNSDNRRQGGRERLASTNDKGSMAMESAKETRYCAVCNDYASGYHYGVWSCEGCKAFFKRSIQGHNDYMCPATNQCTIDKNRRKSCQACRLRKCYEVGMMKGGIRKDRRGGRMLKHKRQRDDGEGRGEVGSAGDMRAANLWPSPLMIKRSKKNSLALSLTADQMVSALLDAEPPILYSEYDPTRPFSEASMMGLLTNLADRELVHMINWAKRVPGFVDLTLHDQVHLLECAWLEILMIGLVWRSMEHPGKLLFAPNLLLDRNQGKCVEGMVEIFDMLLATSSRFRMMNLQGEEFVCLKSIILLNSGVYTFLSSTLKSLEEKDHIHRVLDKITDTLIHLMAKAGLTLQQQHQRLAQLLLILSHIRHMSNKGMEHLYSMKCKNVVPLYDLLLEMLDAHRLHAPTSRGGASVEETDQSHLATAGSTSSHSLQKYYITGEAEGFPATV
experiment summary: qHTS assay to identify small molecule antagonists of the estrogen receptor alpha (ER-alpha) signaling pathway using the BG1 cell line in the presence of 0.1 nM 17-beta-estradiol (AID 1259244); further: nearly all actives have a fitted effect of over 50% in size
condition: VM7Luc4E2 (BG1) ERE-luciferase, antagonist mode, 0.1 nM E2, 22 h; series mostly up to 92.4 µM
Inconclusive results are not listed. Calls of active or inactive are those of the source. Calls follow the shape of the dose curve; as a rule, active = well fitted inhibition curve with a large enough effect in the repeat runs; inconclusive = weak or mixed curves; inactive = no such curve, though single readings can be large or run the other way.
Possible outcomes: active, inactive

[
  {
    "molecule": "Cc1cc(C)c(C(=O)P(=O)(C(=O)c2c(C)cc(C)cc2C)c2ccccc2)c(C)c1",
    "label value": "inactive"
  },
  {
    "molecule": "O=C1OC(c2ccc(O)c(S(=O)(=O)O)c2)(c2ccc(O)c(S(=O)(=O)O)c2)c2c(Br)c(Br)c(Br)c(Br)c21",
    "label value": "inactive"
  },
  {
    "molecule": "O=[N+]([O-])c1ccc2c3c(cccc13)CC2",
    "label value": "inactive"
  },
  {
    "molecule": "N#CC(CCc1ccc(Cl)cc1)(Cn1cncn1)c1ccccc1 (stereo unspecified)",
    "label value": "active"
  },
  {
    "molecule": "CCOC(=O)C1(c2ccccc2)CCN(CCc2ccc(N)cc2)CC1",
    "label value": "inactive"
  },
  {
    "molecule": "Clc1cccc(N2CCNCC2)c1",
    "label value": "inactive"
  },
  {
    "molecule": "O=P(O)(Oc1ccccc1)Oc1ccccc1",
    "label value": "inactive"
  },
  {
    "molecule": "Cc1ncc2n1-c1ccc(Cl)cc1C(c1ccccc1F)=NC2",
    "label value": "active"
  },
  {
    "molecule": "COP(=S)(OC)Oc1ccc(S(N)(=O)=O)cc1",
    "label value": "inactive"
  },
  {
    "molecule": "O=C(O)c1cccc(Cl)c1",
    "label value": "inactive"
  },
  {
    "molecule": "C#CCN1C(=O)COc2cc(F)c(N3C(=O)C4=C(CCCC4)C3=O)cc21",
    "label value": "inactive"
  },
  {
    "molecule": "CC(Cl)(Cl)[N+](=O)[O-]",
    "label value": "inactive"
  },
  {
    "molecule": "CC(=O)CC(c1ccc(Cl)cc1)c1c(O)c2ccccc2oc1=O (stereo unspecified)",
    "label value": "inactive"
  },
  {
    "molecule": "O=NN1CCN(N=O)CC1",
    "label value": "inactive"
  },
  {
    "molecule": "O=C(Nc1ccccc1)c1ccccc1I",
    "label value": "inactive"
  },
  {
    "molecule": "O=C(Cc1ccccc1)OCc1ccccc1",
    "label value": "inactive"
  },
  {
    "molecule": "C(CCOCC1CO1)COCC1CO1 (stereo unspecified)",
    "label value": "inactive"
  },
  {
    "molecule": "C1CCC(C2CCCCC2)CC1",
    "label value": "inactive"
  },
  {
    "molecule": "Nc1cnn(-c2ccccc2)c(=O)c1Cl",
    "label value": "inactive"
  },
  {
    "molecule": "C=C(C)CN(CC)c1c([N+](=O)[O-])cc(C(F)(F)F)cc1[N+](=O)[O-]",
    "label value": "inactive"
  },
  {
    "molecule": "C#C[C@]1(O)C=C[C@H]2[C@@H]3CCC4=CC(=O)CC[C@@H]4[C@H]3CC[C@@]21CC",
    "label value": "inactive"
  },
  {
    "molecule": "CCN(Cc1ccc(Cl)nc1)/C(=C/[N+](=O)[O-])NC",
    "label value": "inactive"
  },
  {
    "molecule": "Cc1ncc(CNC(=O)N(CCCl)N=O)c(N)n1",
    "label value": "inactive"
  },
  {
    "molecule": "CCN(CC)C(C)C(=O)c1ccccc1 (stereo unspecified)",
    "label value": "inactive"
  },
  {
    "molecule": "COC(=O)c1c(C(F)F)nc(C(F)(F)F)c(C2=NCCS2)c1CC(C)C",
    "label value": "inactive"
  },
  {
    "molecule": "CC1(C)C(=O)NC(=O)NC1=O",
    "label value": "inactive"
  }
]

----------
experiment summary: qHTS RealTime-Glo MT Cell Viability Assay in HepG2 cells - 32 hour (AID 1224877); further: nearly all actives have a fitted effect of over 55% in size
condition: RealTime-Glo luminescence; series mostly up to 76.8 µM
Inconclusive results are not listed. Calls of active or inactive are those of the source. The call rests on the fitted dose curve; in most records, active means well fitted cell-killing curve with a large enough effect in the repeat runs; inconclusive means weak or mixed curves; inactive means flat fitted curve, though single readings scatter.
Labels: y = active, n = inactive

[
  {
    "compound": "O=P(O)(Oc1ccccc1)Oc1ccccc1",
    "label value": "n"
  },
  {
    "compound": "O=[N+]([O-])c1ccc(CBr)cc1",
    "label value": "n"
  },
  {
    "compound": "CCOC(=O)C1(c2ccccc2)CCN(CCc2ccc(N)cc2)CC1",
    "label value": "n"
  },
  {
    "compound": "CNC(=O)N(C)c1nc2ccccc2s1",
    "label value": "n"
  },
  {
    "compound": "CC1CCC(=O)O1 (stereo not drawn)",
    "label value": "n"
  },
  {
    "compound": "Clc1ccccc1N1CCNCC1",
    "label value": "n"
  },
  {
    "compound": "COc1cc(OC)nc(NC(=O)NS(=O)(=O)c2ncccc2C(=O)N(C)C)n1",
    "label value": "n"
  },
  {
    "compound": "CNC(=O)Oc1ccc(N(C)C)c(C)c1",
    "label value": "n"
  },
  {
    "compound": "CC1CN1P(=O)(N1CC1C)N1CC1C (stereo not drawn)",
    "label value": "n"
  },
  {
    "compound": "C[C@H]1CCC[C@H](O)CCCCCc2cc(O)cc(O)c2C(=O)O1",
    "label value": "n"
  },
  {
    "compound": "O=C1CN2CCOC2(c2ccccc2Cl)c2cc(Cl)ccc2N1 (stereo not drawn)",
    "label value": "n"
  },
  {
    "compound": "ClCC(Cl)Cl",
    "label value": "n"
  },
  {
    "compound": "O=C1OC(CCN2CCCCC2)OC1(c1ccccc1)c1ccccc1 (stereo not drawn)",
    "label value": "n"
  },
  {
    "compound": "CC(COc1ccc(Oc2ccccc2)cc1)Oc1ccccn1 (stereo not drawn)",
    "label value": "n"
  },
  {
    "compound": "O=S(=O)(O)C(F)(F)C(F)(F)C(F)(F)C(F)(F)C(F)(F)C(F)(F)F",
    "label value": "n"
  },
  {
    "compound": "CCCCOC(=O)[C@@H](C)Oc1ccc(Oc2ccc(C#N)cc2F)cc1",
    "label value": "n"
  },
  {
    "compound": "COc1ccc2c(c1OC)CN1CCc3cc4c(cc3C1C2)OCO4 (stereo not drawn)",
    "label value": "n"
  },
  {
    "compound": "C[N+](=O)[O-]",
    "label value": "n"
  },
  {
    "compound": "CCCCCCBr",
    "label value": "n"
  },
  {
    "compound": "OCCSCSCCO",
    "label value": "n"
  },
  {
    "compound": "ClCCCN1CCN(c2cccc(Cl)c2)CC1",
    "label value": "n"
  },
  {
    "compound": "CC1COC2(c3ccccc3Cl)c3cc(Cl)ccc3NC(=O)CN12 (stereo not drawn)",
    "label value": "n"
  },
  {
    "compound": "O=C(CCN1CC1)OCC(CO)(COC(=O)CCN1CC1)COC(=O)CCN1CC1",
    "label value": "n"
  },
  {
    "compound": "CCCCP(CCCC)CCCC",
    "label value": "n"
  },
  {
    "compound": "CC(Cl)(Cl)[N+](=O)[O-]",
    "label value": "n"
  },
  {
    "compound": "O=NN1CCCCC1",
    "label value": "n"
  },
  {
    "compound": "COC(=O)c1c(C(F)F)nc(C(F)(F)F)c(C2=NCCS2)c1CC(C)C",
    "label value": "n"
  },
  {
    "compound": "CCCCCCI",
    "label value": "y"
  },
  {
    "compound": "CNC(=O)Oc1cccc(C(C)C)c1",
    "label value": "n"
  },
  {
    "compound": "Nc1cc2c3c(c1)C(c1ccccc1)=N[C@@H](NC(=O)c1cccnc1)C(=O)N3CC2",
    "label value": "n"
  },
  {
    "compound": "Cc1ncc2n1-c1ccc(Cl)cc1C(c1ccccc1F)=NC2",
    "label value": "n"
  },
  {
    "compound": "CCOC(=O)NC(=S)Nc1ccccc1NC(=S)NC(=O)OCC",
    "label value": "n"
  },
  {
    "compound": "CN1C(=S)CN=C(c2ccccc2)c2cc(Cl)ccc21",
    "label value": "n"
  },
  {
    "compound": "COP(=S)(OC)Oc1c(Cl)cc(C)cc1Cl",
    "label value": "n"
  },
  {
    "compound": "COC(=O)C(c1ccccc1)C1CCCCN1 (stereo not drawn)",
    "label value": "n"
  },
  {
    "compound": "CNC(=O)O/N=C(\\C)SC",
    "label value": "n"
  },
  {
    "compound": "OC(Cn1cncn1)(c1ccc(F)cc1)c1ccccc1F (stereo not drawn)",
    "label value": "n"
  },
  {
    "compound": "Cc1ncc(CNC(=O)N(CCCl)N=O)c(N)n1",
    "label value": "n"
  },
  {
    "compound": "OC(c1ccc(F)cc1)(c1cncnc1)c1ccccc1Cl (stereo not drawn)",
    "label value": "n"
  },
  {
    "compound": "CC(C(O)c1ccccc1)N(C)C/C=C/c1ccccc1 (stereo not drawn)",
    "label value": "n"
  },
  {
    "compound": "CCN(CC)C(C)C(=O)c1ccccc1 (stereo not drawn)",
    "label value": "n"
  },
  {
    "compound": "C#CCN1C(=O)COc2cc(F)c(N3C(=O)C4=C(CCCC4)C3=O)cc21",
    "label value": "n"
  },
  {
    "compound": "CCCSP(=S)(OCC)Oc1ccc(Cl)cc1Cl (stereo not drawn)",
    "label value": "n"
  }
]
